# tested-on: Inadl_8, Q8NI35
# Sequence (Q8NI35 1425-1530): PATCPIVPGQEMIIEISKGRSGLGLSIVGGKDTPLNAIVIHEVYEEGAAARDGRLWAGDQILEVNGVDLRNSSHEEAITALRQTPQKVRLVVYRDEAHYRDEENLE
# assay-overview: holdup assay
# Parameters: key: below the threshold = too weak to quantify, mostly under pKd 3.1 to 4
# test-context: plain residues with an end cap or a label only (N-terminal biotin on a linker: ado-ado)
reported-property: pKd
Quick one: just the number, no unit, thanks!

Asked: Using the record for AEASVACSLC [PTGIR, P43119] , report its pKd.
Given back: 3.77

Asked: # lookup: pKd of SPDRDRESIV [SCN5A, Q14524]
Given back: 3.85

Asked: Request the reported pKd associated with RDPPAEWTRV [PTPN18, Q99952]
Given back: 4.2
